B1: CPEB3 Ribozyme (parent)
chain: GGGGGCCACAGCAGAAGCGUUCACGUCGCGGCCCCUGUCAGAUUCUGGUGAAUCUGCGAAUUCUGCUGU

- Variants of: B1
- experiment: self-cleavage, relative activity (ratio to wild type); higher = more cleavage; co-transcriptional
The threshold is inclusive: self-cleavage of exactly 0.5 counts as t; values below receive f.

Check out these entries, answers already filled in.
>>> group("A15G G58A")
"t"
>>> group("U38C A59G")
"t"

Enquiry: Confirm if self-cleavage reported for the variant C34U U38G is 0.5 or above.
Return: f

Cited source for all entries: the RNAGym collection of RNA variant scans (doi:10.7554/elife.80360)
